# experiment: qHTS assay to test for compound auto fluorescence at 535 nm (green) in HEK293 cell free culture (AID 720682); note: % is set by controls: 0 for no effect and ±100 for the full control effect
# protocol_conditions: cell-free medium, green autofluorescence 485/535 nm, hits give high values; series mostly up to 91.3 µM
# Description: U.S. Tox21 Program National Center for Advancing Translational Sciences [NCATS] NIH Chemical Genomics Center [NCGC] U.S. Environmental Protection Agency [EPA] National Institutes of Environmental Health Sciences [NIEHS] National Toxicology Program [NTP] U.S. Food and Drug Administration [FDA] Tox21 Assay Overview: Compound auto fluorescence often interferes with screening of the compound library against various biological targets and signaling pathways. […] This assay includes the green fluorescence data. […]
Active and inactive are the calls of the source. Calls come from the whole dose curve; as a rule, active = well fitted curve in the direction sought with a large enough effect in the repeat runs; inconclusive = weak or mixed curves; inactive = flat fitted curve, though single readings scatter.

compound: Cc1ccc(S(=O)(=O)NC(=O)NC2CCCCCCC2)cc1
activity change: inactive
--
compound: O=CO
activity change: -0.0948% [at 9.17 µM] (inactive)
--
compound: O=C(O)Cc1cccc(-c2cc(CCCCCCc3ccc(O[C@H]4O[C@H](CO)[C@@H](O)[C@H](O)[C@@H]4O)c(-c4cccc(CC(=O)O)c4)c3)ccc2O[C@H]2O[C@H](CO)[C@@H](O)[C@H](O)[C@@H]2O)c1
activity change: inactive
--
compound: Nc1ccnc(=O)[nH]1
activity change: inactive
--
compound: CC(=O)OC(C(=O)c1ccccc1)c1ccccc1 (stereo not given)
activity change: inactive

###

# experiment: qHTS assay to identify small molecule antagonists of the progesterone receptor (PR) signaling pathway - cell viability counter screen (AID 1346798);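 note: HEK293T PR-UAS-bla cells stimulated with the agonist R5020; % is set by controls: 0 for no effect and ±100 for the full control effect; nearly all actives have a fitted effect of over 50% in size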
# protocol_conditions: PR-UAS-bla HEK293T viability, CellTiter-Glo luminescence, 16 h; series mostly up to 92.4 µM
Results filed as inconclusive are left out. The source made the active and inactive calls. Calls follow the shape of the dose curve; as a rule, active = well fitted cell-killing curve with a large enough effect in the repeat runs; inconclusive = weak or mixed curves, or effect the other way; inactive = no such curve, though single readings can be large or run the other way.

molecule: C=C(C)[C@@H]1CC[C@@H](C)C[C@@H]1O
activity change, negative = cytotoxicity: inactive

molecule: O=C1NC2NC(=O)NC2N1 (configuration not stated)
activity change, negative = cytotoxicity: inactive

molecule: NCCc1ccn[nH]1
activity change, negative = cytotoxicity: inactive

molecule: Cn1c(=O)c2c(ncn2CC2OCCO2)n(C)c1=O
activity change, negative = cytotoxicity: inactive

molecule: OCCCCCCCl
activity change, negative = cytotoxicity: inactive

molecule: COc1ccc(N=Nc2cc(C)c(N=Nc3ccc(S(=O)(=O)O)cc3)cc2OC)cc1
activity change, negative = cytotoxicity: inactive

molecule: C[CH2][Ge]([Cl])([CH2]C)[CH2]C
activity change, negative = cytotoxicity: inactive

###

# experimental_system: Progesterone receptor (Homo sapiens) (UniProt P06401)
# Sequence (P06401 whole entry, looked up): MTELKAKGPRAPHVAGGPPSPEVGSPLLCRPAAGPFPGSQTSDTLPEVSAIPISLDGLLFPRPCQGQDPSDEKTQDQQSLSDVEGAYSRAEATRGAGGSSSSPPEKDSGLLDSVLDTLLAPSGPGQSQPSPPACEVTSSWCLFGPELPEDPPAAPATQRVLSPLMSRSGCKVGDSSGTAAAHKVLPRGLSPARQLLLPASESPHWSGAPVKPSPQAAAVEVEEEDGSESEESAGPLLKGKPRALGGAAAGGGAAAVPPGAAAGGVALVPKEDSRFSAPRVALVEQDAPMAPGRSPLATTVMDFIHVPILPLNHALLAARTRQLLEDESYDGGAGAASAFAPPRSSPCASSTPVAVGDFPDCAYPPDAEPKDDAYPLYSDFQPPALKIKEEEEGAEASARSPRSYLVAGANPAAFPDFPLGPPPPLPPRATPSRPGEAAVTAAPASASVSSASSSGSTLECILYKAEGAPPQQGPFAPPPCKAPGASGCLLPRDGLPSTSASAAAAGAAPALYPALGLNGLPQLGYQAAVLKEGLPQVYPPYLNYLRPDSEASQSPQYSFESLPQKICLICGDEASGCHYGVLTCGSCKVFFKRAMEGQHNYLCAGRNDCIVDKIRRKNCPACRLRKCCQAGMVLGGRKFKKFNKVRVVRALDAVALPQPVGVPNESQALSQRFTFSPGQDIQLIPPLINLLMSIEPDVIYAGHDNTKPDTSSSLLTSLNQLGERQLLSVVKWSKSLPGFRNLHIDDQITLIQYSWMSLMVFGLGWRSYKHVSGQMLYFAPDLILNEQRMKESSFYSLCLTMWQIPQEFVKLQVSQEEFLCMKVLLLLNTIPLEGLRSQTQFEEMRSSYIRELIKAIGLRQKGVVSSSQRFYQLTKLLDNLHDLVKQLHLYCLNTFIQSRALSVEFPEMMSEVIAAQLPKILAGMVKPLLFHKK
# experiment: qHTS assay to identify small molecule agonists of the progesterone receptor (PR) signaling pathway (AID 1346784); note: nearly all actives have a fitted effect of over 30% in size
# protocol_conditions: PR-UAS-bla HEK293T, beta-lactamase FRET ratio, 16 h; series mostly up to 92.4 µM
Inconclusive results are not listed. Calls of active or inactive are those of the source. Calls come from the whole dose curve.
Labels: t = active, f = inactive

compound: C1=C\CC/C=C\CC/1
qualitative_label: f
//
compound: Cc1ccc(S(=O)(=O)NC(=O)NC2CCCCCCC2)cc1
qualitative_label: f
//
compound: Cc1cccc(C(=O)O)c1[N+](=O)[O-]
qualitative_label: f
//
compound: CCC1Nc2cc(Cl)c(S(N)(=O)=O)cc2S(=O)(=O)N1 (stereo not given)
qualitative_label: f
//
compound: COc1ccc(OC)c(NC(=O)CC(C)=O)c1
qualitative_label: f
//
compound: CCCCCC(=O)OCC
qualitative_label: f
//
compound: CC(C)=CC(C)(C)C
qualitative_label: f
//
compound: CCNC(=O)NCCCOc1cccc(CN2CCCCC2)c1
qualitative_label: f
//
compound: CNC(=O)C(c1ccccc1)c1ccccc1
qualitative_label: f
//
compound: CC(=O)OC(C(=O)c1ccccc1)c1ccccc1 (stereo not given)
qualitative_label: f
//
compound: O=S(=O)(O)CCO
qualitative_label: t
//
compound: Nc1ccc(S(=O)(=O)Nc2ccccn2)cc1
qualitative_label: f
//
compound: CC(=O)/C=C/c1ccco1
qualitative_label: f
//
compound: COc1cccc2sc(N)nc12
qualitative_label: t
//
compound: Cc1ccccc1C
qualitative_label: f

###

# experimental_system: Nuclear receptor subfamily 1 group I member 2 (Rattus norvegicus) (UniProt Q9R1A7)
# Sequence (Q9R1A7 whole entry, looked up): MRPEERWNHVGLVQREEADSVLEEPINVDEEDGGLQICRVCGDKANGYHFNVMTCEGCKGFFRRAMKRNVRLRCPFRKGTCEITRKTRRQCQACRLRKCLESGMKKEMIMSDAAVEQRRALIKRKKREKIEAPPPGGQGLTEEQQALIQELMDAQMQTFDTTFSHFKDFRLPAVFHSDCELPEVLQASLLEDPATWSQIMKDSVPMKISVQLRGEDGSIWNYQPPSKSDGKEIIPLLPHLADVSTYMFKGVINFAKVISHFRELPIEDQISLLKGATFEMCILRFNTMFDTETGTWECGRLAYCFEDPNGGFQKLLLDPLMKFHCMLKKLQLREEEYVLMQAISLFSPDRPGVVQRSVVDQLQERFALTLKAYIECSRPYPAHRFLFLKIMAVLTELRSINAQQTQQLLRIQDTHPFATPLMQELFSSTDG
# experiment: Rat pregnane X receptor (rPXR) activation by small molecules, qHTS assay (AID 1346983); note: % is set by controls: 0 for no effect and ±100 for the full control effect; nearly all actives have a fitted effect of over 20% in size
# protocol_conditions: rPXR luciferase reporter cells, One-Glo luminescence, 24 h; hits give high values
Results filed as inconclusive are left out.

entry_smiles: CNCc1ccccc1
unit_of_measure: %
max activation: -0.758

entry_smiles: F[Si-2](F)(F)(F)(F)F
unit_of_measure: %
max activation: -2.73

entry_smiles: Cc1cccc(Nc2ccncc2S(=O)(=O)NC(=O)NC(C)C)c1
unit_of_measure: %
max activation: -0.7

entry_smiles: O=C(Oc1ccccc1C(=O)O)c1ccccc1O
unit_of_measure: %
max activation: -2.38

entry_smiles: O=C(Nc1cccc(C2=NCCN2)c1)Nc1cccc(C2=NCCN2)c1
unit_of_measure: %
max activation: -0.171

entry_smiles: Nc1ccc(/C=C/c2ccc(N)cc2S(=O)(=O)O)c(S(=O)(=O)O)c1
unit_of_measure: %
max activation: -1.81

entry_smiles: Nc1ccc(S(=O)(=O)Nc2ccccn2)cc1
unit_of_measure: %
max activation: -1.43

entry_smiles: NS(=O)(=O)c1ccc(Cl)c(S(N)(=O)=O)c1
unit_of_measure: %
max activation: -3.93

entry_smiles: O=C(CN1CCN(Cc2ccc3c(c2)OCO3)CC1)N1c2ccccc2Sc2ccccc21
unit_of_measure: %
max activation: 6.39

entry_smiles: CN[C@@H]1[C@H](O)[C@H](NC)[C@H]2O[C@@]3(O)C(=O)C[C@@H](C)O[C@H]3O[C@@H]2[C@H]1O
unit_of_measure: %
max activation: -0.189

entry_smiles: NC(=O)C1(N2CCCCC2)CCN(CCCC(=O)c2ccc(F)cc2)CC1
unit_of_measure: %
max activation: 0.444

entry_smiles: O=c1[nH]c(=O)c2ccccc2o1
unit_of_measure: %
max activation: -5.11

###

// reported Potency for each item listed
# experiment: A CellTox Green Cytotoxicity Assay to monitor cytotoxicity in HepG2 cells - 24 hour (AID 1224878); note: potency is the fitted concentration of half-maximal effect; nearly all actives have a fitted effect of over 45% in size
# protocol_conditions: CellTox Green fluorescence; series mostly up to 76.8 µM
Records with an inconclusive call do not appear. Calls of active or inactive are those of the source. Calls come from the whole dose curve; as a rule, active = well fitted activation curve with a large enough effect in the repeat runs; inconclusive = weak or mixed curves; inactive = flat fitted curve, though single readings scatter.

compound: Cc1oc(=O)oc1CN1CCN(c2cc3c(cc2F)c(=O)c(C(=O)O)c2n3C(C)S2)CC1 (centres undefined)
Potency: 0.535 µM (active)
--
compound: Cc1ccccc1C(=O)N1CC/C(=N\OS(=O)(=O)O)c2ccc(Cl)cc21
Potency: 26.8 µM (active)
--
compound: Cc1cc(C)cc([N+](=O)[O-])c1
Potency: 55.6 µM (active)
--
compound: CCCCCCCCCCCCCCCC(=O)NCCO
Potency: 8.49 µM (active)

###

# experimental_system: Estrogen receptor (Homo sapiens) (UniProt P03372)
# Sequence (P03372 whole entry, looked up): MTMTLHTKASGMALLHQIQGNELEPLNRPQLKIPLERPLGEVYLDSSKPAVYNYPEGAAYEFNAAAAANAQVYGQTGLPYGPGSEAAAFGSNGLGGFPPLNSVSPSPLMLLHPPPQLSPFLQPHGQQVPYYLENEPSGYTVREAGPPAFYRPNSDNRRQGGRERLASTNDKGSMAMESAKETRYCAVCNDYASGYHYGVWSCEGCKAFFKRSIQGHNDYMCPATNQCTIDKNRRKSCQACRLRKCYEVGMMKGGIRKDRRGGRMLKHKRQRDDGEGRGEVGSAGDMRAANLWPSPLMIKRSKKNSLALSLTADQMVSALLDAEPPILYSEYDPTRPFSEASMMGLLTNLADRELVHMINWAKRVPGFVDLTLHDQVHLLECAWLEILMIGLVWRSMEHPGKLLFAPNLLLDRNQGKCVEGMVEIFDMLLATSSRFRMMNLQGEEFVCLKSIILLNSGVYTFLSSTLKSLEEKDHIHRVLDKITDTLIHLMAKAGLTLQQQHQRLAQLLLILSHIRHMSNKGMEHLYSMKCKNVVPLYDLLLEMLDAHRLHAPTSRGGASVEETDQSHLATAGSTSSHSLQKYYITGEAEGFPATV
# experiment: qHTS assay to identify small molecule agonists of the estrogen receptor alpha (ER-alpha) signaling pathway in the presence of an antagonist (AID 1259383); note: top concentration of the series differs between compounds; % is set by controls: 0 for no effect and ±100 for the full control effect; nearly all actives have a fitted effect of over 15% in size
# protocol_conditions: VM7Luc4E2 cells, ERE-luciferase, +ICI-182,780, 22 h; series mostly up to 92.4 µM
The source made the active and inactive calls. The call rests on the fitted dose curve.
endpoint: activation

molecule: CCCCCCCCOC(C)=O
observed_result: inactive

molecule: CN[C@@H]1[C@H](O)[C@H](NC)[C@H]2O[C@@]3(O)C(=O)C[C@@H](C)O[C@H]3O[C@@H]2[C@H]1O
observed_result: inactive

molecule: CCOC(=O)CC#N
observed_result: inactive

molecule: CCCOCCOCCOCCO
observed_result: inactive

molecule: CCCCOC(=O)C(C)OC(=O)CCC (stereo not given)
observed_result: inactive

molecule: CC(C)SCc1ccco1
observed_result: inactive

molecule: CCC(=O)c1ccc(O)cc1
observed_result: inactive

molecule: OC(CCN1CCCCC1)(c1ccccc1)c1ccccc1
observed_result: inactive

molecule: CC(=O)/C=C/c1ccco1
observed_result: inactive

molecule: O=C(COCCOCCOCC(=O)Nc1c(I)cc(I)c(C(=O)O)c1I)Nc1c(I)cc(I)c(C(=O)O)c1I
observed_result: inactive

molecule: Cc1cccc(C(=O)O)c1[N+](=O)[O-]
observed_result: inactive

molecule: C[Si]1(C)N[Si](C)(C)N[Si](C)(C)N1
observed_result: inactive

molecule: CC(=O)OC[C@H]1O[C@@H](OC(C)=O)[C@H](OC(C)=O)[C@@H]1OC(C)=O
observed_result: inactive

molecule: FC(F)(F)/C(=N\OCC1OCCO1)c1ccc(Cl)cc1
observed_result: inactive

molecule: O=C(/C=C/c1ccccc1)NCCO
observed_result: inactive

###

# experimental_system: Vitamin D3 receptor (Homo sapiens) (UniProt P11473)
# Sequence (P11473 whole entry, looked up): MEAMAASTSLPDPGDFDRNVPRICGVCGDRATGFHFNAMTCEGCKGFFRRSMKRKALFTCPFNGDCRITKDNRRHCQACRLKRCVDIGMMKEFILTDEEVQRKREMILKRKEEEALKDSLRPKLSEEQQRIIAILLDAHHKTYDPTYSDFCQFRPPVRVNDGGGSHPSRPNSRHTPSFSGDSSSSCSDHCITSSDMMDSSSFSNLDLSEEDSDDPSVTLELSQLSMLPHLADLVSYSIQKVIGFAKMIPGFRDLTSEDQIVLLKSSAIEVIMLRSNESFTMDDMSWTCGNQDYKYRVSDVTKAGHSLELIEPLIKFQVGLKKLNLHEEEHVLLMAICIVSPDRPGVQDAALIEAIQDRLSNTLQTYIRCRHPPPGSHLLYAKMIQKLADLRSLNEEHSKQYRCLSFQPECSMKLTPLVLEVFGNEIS
# experiment: qHTS assay to identify small molecule agonists of the vitamin D receptor (VDR) signaling pathway (AID 743222); note: % is set by controls: 0 for no effect and ±100 for the full control effect
# protocol_conditions: HEK293T VDR-UAS-bla, beta-lactamase FRET ratio, 16 h; series mostly up to 63.5 µM
Records with an inconclusive call do not appear. Activity calls are given as the source filed them. The call rests on the fitted dose curve.

compound: COc1cc([N+](=O)[O-])ccc1N
activation: inactive

compound: C[CH2][Ge]([Cl])([CH2]C)[CH2]C
activation: inactive

compound: C1=C\CC/C=C\CC/1
activation: inactive

compound: CC1(N)CCC(C(C)(C)N)CC1 (stereo not drawn)
activation: inactive

compound: CC(=O)Nc1ccc(C)cc1
activation: inactive

compound: CC(C)COC(=O)/C=C/c1ccccc1
activation: inactive

compound: CCCCCC(=O)OCC
activation: inactive

compound: C=CCOc1c(Br)cc(C(C)(C)c2cc(Br)c(OCC=C)c(Br)c2)cc1Br
activation: inactive

compound: CC(=O)c1ccc(OCC(=O)N2CCCCC2)cc1
activation: inactive

compound: O=C(O)c1ccccc1C(=O)Nc1ccc(S(=O)(=O)Nc2nccs2)cc1
activation: inactive

compound: O=C(c1ccc2c(c1)C(=O)OC2=O)c1ccc2c(c1)C(=O)OC2=O
activation: inactive

compound: CCCCOC(=O)[C@@H](C)Oc1ccc(Oc2ccc(C(F)(F)F)cn2)cc1
activation: inactive

compound: CCCOCCOCCOCCO
activation: inactive
